molecular target: human AR (Homo sapiens); construct: expressed in transfected cells; host or cells: HeLa13 (HeLa 13); assay: AR-mediated induction of PSA-luciferase reporter by R1881 in HeLa13 cells; format: cell-based; details: 1 µM; R1881 1.0 nM; read-out: % Inhibition of AR-Mediated Gene Induction
Sequence (P10275 whole entry): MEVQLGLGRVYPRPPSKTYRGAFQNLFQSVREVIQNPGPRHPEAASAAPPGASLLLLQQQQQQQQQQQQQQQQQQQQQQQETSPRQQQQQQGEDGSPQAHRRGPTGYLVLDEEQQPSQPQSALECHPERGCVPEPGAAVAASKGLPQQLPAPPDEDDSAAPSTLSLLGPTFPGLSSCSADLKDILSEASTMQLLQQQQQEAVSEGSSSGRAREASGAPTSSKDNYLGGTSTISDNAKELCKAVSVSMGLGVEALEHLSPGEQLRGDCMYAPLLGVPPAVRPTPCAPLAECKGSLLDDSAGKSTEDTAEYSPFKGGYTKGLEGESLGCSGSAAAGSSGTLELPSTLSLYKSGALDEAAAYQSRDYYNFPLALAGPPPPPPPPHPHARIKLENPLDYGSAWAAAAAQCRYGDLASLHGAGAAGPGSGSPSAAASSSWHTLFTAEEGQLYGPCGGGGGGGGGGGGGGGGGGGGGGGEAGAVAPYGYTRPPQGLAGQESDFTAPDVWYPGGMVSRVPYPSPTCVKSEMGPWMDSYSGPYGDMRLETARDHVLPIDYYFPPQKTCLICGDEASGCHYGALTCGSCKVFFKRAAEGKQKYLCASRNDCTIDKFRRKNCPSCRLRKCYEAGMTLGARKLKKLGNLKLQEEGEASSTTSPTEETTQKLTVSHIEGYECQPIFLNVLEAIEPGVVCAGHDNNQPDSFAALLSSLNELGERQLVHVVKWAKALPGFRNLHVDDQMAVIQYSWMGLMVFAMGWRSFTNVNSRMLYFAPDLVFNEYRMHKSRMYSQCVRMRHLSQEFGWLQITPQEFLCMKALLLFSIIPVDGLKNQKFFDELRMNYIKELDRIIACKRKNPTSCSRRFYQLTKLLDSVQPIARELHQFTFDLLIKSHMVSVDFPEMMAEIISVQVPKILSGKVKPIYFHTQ

{"columns": ["compound", "inhibition at 1 µM, %"],
 "data": [
  ["O=c1cc(-c2ccc(O)cc2)oc2cccc(O)c12 [5,4′-dihydroxyflavone]", 77],
  ["O=c1cc(-c2ccccc2)oc2ccccc12", -12],
  ["COc1cccc2oc(-c3ccc(O)cc3)cc(=O)c12 [5-methoxy,4′-hydroxyflavone]", -4],
  ["O=c1cc(-c2ccc(O)c(O)c2)oc2ccccc12 [3′,4′-dihydroxyflavone]", 40],
  ["O=c1cc(-c2ccc(O)c(O)c2)oc2cc(O)ccc12 [7,3′,4′-trihydroxyflavone]", -6],
  ["O=c1cc(-c2ccc(O)c(O)c2)oc2cc(O)cc(O)c12 [5,7,3′,4′-tetrahydroxyflavone]", -20],
  ["COc1ccc(-c2cc(=O)c3cc(O)ccc3o2)cc1 [6-hydroxy,4′-methoxyflavone]", 32],
  ["O=c1c(O)c(-c2ccc(O)cc2)oc2ccccc12 [3,4′-dihydroxyflavone]", 3],
  ["O=c1cc(-c2ccccc2)oc2cc(O)cc(O)c12 [5,7-dihydroxyflavone]", -13],
  ["O=c1c(-c2ccc(O)cc2)coc2cc(O)cc(O)c12 [5,7,4′-trihydroxyisoflavone]", 55],
  ["O=c1c(O)c(-c2ccc(O)cc2)oc2cc(O)ccc12 [3,7,4′-trihydroxyflavone]", -6],
  ["COc1ccc2oc(-c3ccc(O)cc3)cc(=O)c2c1 [6-methoxy,4′-hydroxyflavone]", 27],
  ["COc1ccc(-c2oc3ccc(OC)cc3c(=O)c2O)cc1 [3-hydroxy, 6,4′-dimethoxyflavone]", -17],
  ["O=C1CC(c2ccccc2)Oc2ccc(O)cc21 (stereo not shown) [6-hydroxyflavanone]", -8],
  ["O=c1c(O)c(-c2ccccc2)oc2ccc(O)cc12 [3,6-dihydroxyflavone]", 35],
  ["O=C1CC(c2ccc(O)cc2)Oc2cc(O)cc(O)c21 (stereo not shown) [5,7,4′-trihydroxyflavanone]", -17],
  ["O=c1c(O)c(-c2ccc(O)cc2)oc2ccc(O)cc12 [3,6,4′-trihydroxyflavone]", 53],
  ["O=c1cc(-c2ccc(O)cc2)oc2ccc(O)cc12 [6,4′-dihydroxyflavone]", 43],
  ["O=c1cc(-c2ccc(O)cc2)oc2ccccc12 [4′-hydroxyflavone]", 29]
]}

====

Target: progesterone receptor (PR) (Homo sapiens)
Sequence (P06401 679-933 limits assumed): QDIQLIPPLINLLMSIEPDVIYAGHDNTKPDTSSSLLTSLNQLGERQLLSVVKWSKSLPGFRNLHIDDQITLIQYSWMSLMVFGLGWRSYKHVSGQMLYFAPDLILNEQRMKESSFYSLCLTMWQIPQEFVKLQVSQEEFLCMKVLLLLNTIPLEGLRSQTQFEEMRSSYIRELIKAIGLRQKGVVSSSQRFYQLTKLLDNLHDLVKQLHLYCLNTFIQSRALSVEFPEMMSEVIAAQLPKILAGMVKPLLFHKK
Assay: PR-mediated induction of transcription by R5020 in T47D K5pLuc cells (luciferase reporter and endogenous alkaline phosphatase)
Type: cell-based
Settings: T47D, 4 µM; LUC (luciferase); R5020 1.0 nM
We begin with a simple list: items and their reported inhibition at 4 µM.
propertyLabel: inhibition at 4 µM (%)

{"columns": ["compound", "targetOfAssay", "endpointValue"],
 "data": [
  ["O=c1cc(-c2ccc(O)c(O)c2)oc2cc(O)cc(O)c12 [5,7,3′,4′-tetrahydroxyflavone]", "progesterone receptor (PR) (Homo sapiens)", 76],
  ["O=c1cc(-c2ccccc2)oc2cc(O)cc(O)c12 [5,7-dihydroxyflavone]", "progesterone receptor (PR) (Homo sapiens)", 71],
  ["O=c1c(-c2ccc(O)cc2)coc2cc(O)ccc12 [7,4′-dihydroxyisoflavone]", "progesterone receptor (PR) (Homo sapiens)", -13],
  ["COc1ccc([C@@H]2CC(=O)c3c(O)cc(O)cc3O2)cc1O", "progesterone receptor (PR) (Homo sapiens)", -6],
  ["O=c1cc(-c2ccc(O)cc2)oc2cccc(O)c12 [5,4′-dihydroxyflavone]", "progesterone receptor (PR) (Homo sapiens)", -12],
  ["O=c1cc(-c2ccc(O)cc2)oc2cc(O)ccc12 [7,4′-dihydroxyflavone]", "progesterone receptor (PR) (Homo sapiens)", -16],
  ["O=c1cc(-c2ccccc2)oc2ccccc12", "progesterone receptor (PR) (Homo sapiens)", -66],
  ["O=c1cc(-c2ccc(O)c(O)c2)oc2cc(O)ccc12 [7,3′,4′-trihydroxyflavone]", "progesterone receptor (PR) (Homo sapiens)", -11],
  ["O=C1CC(c2ccc(O)c(O)c2)Oc2cc(O)cc(O)c21 (centres unmarked) [5,7,3′,4′-tetrahydroxyflavanone]", "progesterone receptor (PR) (Homo sapiens)", 3],
  ["O=c1cc(-c2ccccc2)oc2cccc(O)c12 [5-hydroxyflavone]", "progesterone receptor (PR) (Homo sapiens)", -23],
  ["O=c1c(-c2ccc(O)cc2)coc2cc(O)cc(O)c12 [5,7,4′-trihydroxyisoflavone]", "progesterone receptor (PR) (Homo sapiens)", -96],
  ["O=C1CC(c2ccc(O)cc2)Oc2cc(O)cc(O)c21 (centres unmarked) [5,7,4′-trihydroxyflavanone]", "progesterone receptor (PR) (Homo sapiens)", 52],
  ["O=c1c(O)c(-c2ccc(O)c(O)c2)oc2cc(O)cc(O)c12 [3,5,7,3′,4′-pentahydroxyflavone]", "progesterone receptor (PR) (Homo sapiens)", 47],
  ["O=c1cc(-c2ccc(O)cc2)oc2ccccc12 [4′-hydroxyflavone]", "progesterone receptor (PR) (Homo sapiens)", -62],
  ["O=c1cc(-c2ccc(O)c(O)c2)oc2ccccc12 [3′,4′-dihydroxyflavone]", "progesterone receptor (PR) (Homo sapiens)", -64],
  ["O=c1cc(-c2ccc(O)cc2)oc2ccc(O)cc12 [6,4′-dihydroxyflavone]", "progesterone receptor (PR) (Homo sapiens)", -147],
  ["O=c1cc(-c2ccc(O)c(O)c2)oc2cccc(O)c12 [5,3′,4′-trihydroxyflavone]", "progesterone receptor (PR) (Homo sapiens)", -7]
]}
